# system: HLA-DR (DRA1*01:01 / DRB1*15:02), soluble knob-into-hole Fc heterodimer (human)
# assay: ELISA
measured property: Ki (nM)
Supply the numeric figure in nM, leaving out any unit text.

# input Given the binder KPVSKMRMATPLLMQALPM [human CLIP peptide, unlabelled competitor] , what is its reported Ki?
# output 23.1

The reported numbers originate from paper doi:10.1101/2025.06.05.658000.
